protocolNotes: Human HepG2 cell viability assay in 384 well format
Assay type: toxicity, cell-based
Design: dose 125 nL, time 70.5 hour; concentration not given beside the values
statedConditions: HepG2 cells, read-out: Inhibition
valueKind: cytotoxicity at 70.5 h (%)
Quick note: give the figure in %, leave out the unit.

>  <compound>
c1ccc(N2CC3(CCN(Cc4cccnc4)C3)C2)nc1

>  <cytotoxicity at 70.5 h (%)>
-7.68

$$$$

I would be grateful if you could share the reported cytotoxicity at 70.5 h for COc1ccc(Cl)cc1CN(C)C(=O)CN1C(=O)CCC1C (stereo unspecified) . -9.27

I would be grateful if you could share the reported cytotoxicity at 70.5 h for O=C(O)c1cc(S(=O)(=O)Nc2cc(Cl)ccc2F)cc2c1OCCO2 . 23

I would be grateful if you could share the reported cytotoxicity at 70.5 h for Cc1cc(C2CCCN2C(=O)CN2CCc3ccccc32)on1 (stereo unspecified) . -0.619

I would be grateful if you could share the reported cytotoxicity at 70.5 h for CCc1nccc(CN2CCC(CNC(=O)c3occc3C)C2)n1 (stereo unspecified) . -5.76

I would be grateful if you could share the reported cytotoxicity at 70.5 h for CCOC(=O)C1CN(S(C)(=O)=O)Cc2ncn(CC)c21 (stereo unspecified) . -0.182

---

protocolNotes: Human HepG2 cell viability assay in 384 well format
Assay type: toxicity, cell-based
Design: dose 125 nL, time 70.5 hour; concentration not given beside the values
statedConditions: HepG2 cells, read-out: Inhibition
valueKind: cytotoxicity at 70.5 h (%)
Quick note: give the figure in %, leave out the unit.

Field: example entries. Status: answers known.
>  <compound>
CCc1nnc2n1CCN(C(=O)C(C)Oc1ccc(C#N)cc1)C2 (configuration not stated)

>  <unitInfo>
%

>  <cytotoxicity at 70.5 h>
-10.1

$$$$
>  <compound>
CN(Cc1ncc[nH]1)CC(c1cccs1)N1CCOCC1 (configuration not stated)

>  <unitInfo>
%

>  <cytotoxicity at 70.5 h>
17.4

$$$$

I would be grateful if you could share the reported cytotoxicity at 70.5 h for Cc1nccn1CCC1CCN(C(C)C)CC1 . -2.75

I would be grateful if you could share the reported cytotoxicity at 70.5 h for Cc1cc(C)n(CC2CN(CC(=O)NC3CCCCC3)CCO2)n1 (configuration not stated) . -9.27

I would be grateful if you could share the reported cytotoxicity at 70.5 h for Cc1ccc(N2CC[C@@H]3[C@@H](CO[C@H]3CNC(=O)c3ccco3)C2)nn1 . -1.79

I would be grateful if you could share the reported cytotoxicity at 70.5 h for CC(C)=CCC1(C(=O)O)CCCN(c2ccnc(C)n2)C1 (configuration not stated) . -3.8

I would be grateful if you could share the reported cytotoxicity at 70.5 h for CCOc1cc(C(=O)N2CCCC(c3noc(C)n3)C2)ccc1OC (configuration not stated) . -4.06

I would be grateful if you could share the reported cytotoxicity at 70.5 h for CC(=O)N1CCC(Oc2ccc(Cl)cc2C(=O)N2CCCO2)CC1 . -3.91

I would be grateful if you could share the reported cytotoxicity at 70.5 h for Cc1csc([C@@H]2C[C@@H]3CCN(Cc4cc(C)on4)C[C@H]3O2)n1 . -6.2

I would be grateful if you could share the reported cytotoxicity at 70.5 h for CS(=O)(=O)CCc1ncnn1-c1ccc(F)c(Cl)c1 . -2.51

I would be grateful if you could share the reported cytotoxicity at 70.5 h for Cc1nnc(NC(=O)N2CCC(N3CCCCC3)CC2)s1 . -8.18

I would be grateful if you could share the reported cytotoxicity at 70.5 h for CN(CC(=O)N1CCOCC(CO)C1)Cc1ccccn1 (configuration not stated) . -12.5
